measured-target: T1, biotin-labeled CD3 epsilon peptide antigen (human, also: biotin-labeled, position not given here)
T1 construct: Peptide of CD3 epsilon; also called CD3 peptide
T1 peptide: QDGNEEMGGITQTPY
test: bead ELISA, biotin-CD3 epsilon peptide on streptavidin beads, 100 ng IgG
Where no end group is shown, it is not given here.
assay-readout: S/N ratio CD3 peptide/non coating
Reply with the value as a number alone.

Incoming: // returns reported S/N ratio CD3 peptide/non coating for input DADU01_3#001 (antibody, human IgG1, V domains shown, also called dBBDu_126; dBBDu126) VH: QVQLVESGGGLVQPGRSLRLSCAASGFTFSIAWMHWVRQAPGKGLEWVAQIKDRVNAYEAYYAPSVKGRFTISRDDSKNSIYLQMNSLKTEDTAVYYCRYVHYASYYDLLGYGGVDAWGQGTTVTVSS VL: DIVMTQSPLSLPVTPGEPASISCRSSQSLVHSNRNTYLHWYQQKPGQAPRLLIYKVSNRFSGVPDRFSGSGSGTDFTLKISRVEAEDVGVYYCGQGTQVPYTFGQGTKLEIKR
Outgoing: 146
